Biological target: recombinant human PKLR (Homo sapiens)
Construct: His (N); purchased R&D Systems
Sequence (P30613 whole entry): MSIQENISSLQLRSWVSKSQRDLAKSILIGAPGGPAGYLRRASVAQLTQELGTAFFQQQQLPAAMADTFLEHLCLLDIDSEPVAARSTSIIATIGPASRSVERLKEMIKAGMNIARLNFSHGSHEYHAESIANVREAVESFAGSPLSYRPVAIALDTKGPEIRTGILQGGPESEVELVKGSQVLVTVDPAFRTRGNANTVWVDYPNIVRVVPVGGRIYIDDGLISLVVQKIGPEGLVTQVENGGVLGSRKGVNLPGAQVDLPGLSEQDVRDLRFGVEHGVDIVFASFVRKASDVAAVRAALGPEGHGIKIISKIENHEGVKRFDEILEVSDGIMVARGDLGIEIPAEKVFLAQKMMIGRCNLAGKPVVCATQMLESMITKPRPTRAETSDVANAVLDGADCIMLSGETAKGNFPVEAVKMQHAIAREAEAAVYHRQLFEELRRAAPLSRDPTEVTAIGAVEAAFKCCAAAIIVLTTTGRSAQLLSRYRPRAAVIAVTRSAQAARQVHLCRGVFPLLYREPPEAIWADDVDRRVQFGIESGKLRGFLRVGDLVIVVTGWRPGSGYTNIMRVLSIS
Experiment: Human PKLR activation assay (Kinase-Glo Plus luminescent detection of generated ATP)
Assay type: biochemical
Conditions: percentage activation normalised to DMSO vehicle (LOW) and 5 μM TEPP-46 (HIGH) controls; read-out: hPKLR Emax (%)
METRIC NAME: Emax (%)

COMPOUND | UNIT NAME | RESULT VALUE
COc1ccc(S(=O)(=O)c2ccc3c(=O)n(Cc4ccn(C5CC5)n4)ncc3c2)cn1 [Example 205] | % | 115
CC(O)c1nc(S(=O)(=O)c2ccc3c(=O)n(Cc4ccc5c(n4)CCO5)ncc3c2)cs1 (centres unmarked) [Example 327] | % | 124
O=c1c2cc(NCCO)c(S(=O)(=O)c3ccccc3)cc2cnn1Cc1ccn(C2CC2)n1 [Example 265] | % | 127
Cc1cccc(Cn2ncc3cc(S(=O)(=O)c4cnn(C5CC5)c4)ccc3c2=O)n1 [Example 259] | % | 123
O=c1c2ccc(S(=O)(=O)c3cnn(CCO)c3)cc2cnn1Cc1cc[nH]n1 [Example 241] | % | 129
O=c1c2ccc(S(=O)(=O)c3ccc4c(c3)NCCO4)cc2cnn1Cc1cc[nH]n1 [Example 221] | % | 134
Cc1cccc(Cn2ncc3cc(S(=O)(=O)c4cc[nH]n4)ccc3c2=O)n1 [Example 239] | % | 135
O=c1c2ccc(S(=O)(=O)c3ccc4c(c3)OCCO4)cc2cnn1Cc1cc[nH]n1 [Example 207] | % | 123
